Tested on: SF-295
assay.overview: Growth of human SF295 cells at 10 uM incubated for 48 hrs by sulforhodamine B assay relative to control
condition.details: SF-295, 48 h
property.label: growth, % of control at 10 µM (%)
Give the quantity in %, number only.

Sample records with growth, % of control at 10 µM:
[[record]]
compound_structure_string = "CC(C)(C)S/C(Nc1ccccc1)=C(\\C#N)C(=O)Nc1ccccc1"
value_observed = 94.4

[[record]]
compound_structure_string = "CC(C)(C)S/C(Nc1ccccc1)=C(\\C#N)C(=O)N/N=C\\c1ccco1"
value_observed = 102

[[record]]
compound_structure_string = "CCS/C(Nc1ccccc1)=C(\\C#N)C(=O)Nc1ccccc1"
value_observed = 91.3

[[record]]
compound_structure_string = "CCS/C(Nc1ccccc1)=C(\\C#N)C(=O)N/N=C\\c1ccc(Cl)cc1Cl"
value_observed = 17

[[record]]
compound_structure_string = "CCS/C(Nc1ccccc1)=C(\\C#N)C(=O)N/N=C\\c1ccco1"
value_observed = 101


[in] Param item = `CCS/C(Nc1ccccc1)=C(\C#N)C(=O)Nc1ccc(C)cc1` ; retrieve measured growth, % of control at 10 µM.
[out] 95.7

[in] Param item = `CC(C)(C)S/C(Nc1ccccc1)=C(\C#N)C(=O)N/N=C\c1ccc(Cl)cc1Cl` ; retrieve measured growth, % of control at 10 µM.
[out] 97.9

[in] Param item = `CCS/C(Nc1ccccc1)=C(\C#N)C(=O)Nc1ccc(OC)cc1` ; retrieve measured growth, % of control at 10 µM.
[out] 32.6

----------
Tested on: MDA-MB-435
assay.overview: Growth of human MDA-MB-435 cells at 10 uM incubated for 48 hrs by sulforhodamine B assay relative to control
condition.details: MDA-MB-435, 48 h
property.label: growth, % of control at 10 µM (%)
Give the quantity in %, number only.

Sample records with growth, % of control at 10 µM:
[[record]]
compound_structure_string = "CCS/C(Nc1ccccc1)=C(\\C#N)C(=O)N/N=C\\c1ccc(Cl)cc1Cl"
property_label = "growth, % of control at 10 µM"
measurement_unit = "%"
value_observed = -34.5

[[record]]
compound_structure_string = "CCS/C(Nc1ccccc1)=C(\\C#N)C(=O)N/N=C\\c1ccco1"
property_label = "growth, % of control at 10 µM"
measurement_unit = "%"
value_observed = 105

[[record]]
compound_structure_string = "CC(C)(C)S/C(Nc1ccccc1)=C(\\C#N)C(=O)N/N=C\\c1ccco1"
property_label = "growth, % of control at 10 µM"
measurement_unit = "%"
value_observed = 101

[[record]]
compound_structure_string = "CCS/C(Nc1ccccc1)=C(\\C#N)C(=O)Nc1ccccc1"
property_label = "growth, % of control at 10 µM"
measurement_unit = "%"
value_observed = 110

[[record]]
compound_structure_string = "CC(C)(C)S/C(Nc1ccccc1)=C(\\C#N)C(=O)Nc1ccccc1"
property_label = "growth, % of control at 10 µM"
measurement_unit = "%"
value_observed = 104

[[record]]
compound_structure_string = "CCS/C(Nc1ccccc1)=C(\\C#N)C(=O)Nc1ccc(C)cc1"
property_label = "growth, % of control at 10 µM"
measurement_unit = "%"
value_observed = 102

[[record]]
compound_structure_string = "CC(C)(C)S/C(Nc1ccccc1)=C(\\C#N)C(=O)N/N=C\\c1ccc(Cl)cc1Cl"
property_label = "growth, % of control at 10 µM"
measurement_unit = "%"
value_observed = 104


# ---- query compound ----
[in] Param item = `CCS/C(Nc1ccccc1)=C(\C#N)C(=O)Nc1ccc(OC)cc1` ; retrieve measured growth, % of control at 10 µM.
[out] -47.9

----------
Tested on: U-251
assay.overview: Growth of human U251 cells at 10 uM incubated for 48 hrs by sulforhodamine B assay relative to control
condition.details: U-251, 48 h
growth, % of control at 10 µM by entry:
Don't forget the unit after the value.

[[record]]
compound_structure_string = "CC(C)(C)S/C(Nc1ccccc1)=C(\\C#N)C(=O)N/N=C\\c1ccc(Cl)cc1Cl"
target_or_system = "U-251"
property_label = "growth, % of control at 10 µM"
value_observed = "98.6%"

[[record]]
compound_structure_string = "CCS/C(Nc1ccccc1)=C(\\C#N)C(=O)N/N=C\\c1ccc(Cl)cc1Cl"
target_or_system = "U-251"
property_label = "growth, % of control at 10 µM"
value_observed = "19.1%"

[[record]]
compound_structure_string = "CCS/C(Nc1ccccc1)=C(\\C#N)C(=O)N/N=C\\c1ccco1"
target_or_system = "U-251"
property_label = "growth, % of control at 10 µM"
value_observed = "94%"

[[record]]
compound_structure_string = "CC(C)(C)S/C(Nc1ccccc1)=C(\\C#N)C(=O)N/N=C\\c1ccco1"
target_or_system = "U-251"
property_label = "growth, % of control at 10 µM"
value_observed = "94.7%"

[[record]]
compound_structure_string = "CCS/C(Nc1ccccc1)=C(\\C#N)C(=O)Nc1ccc(OC)cc1"
target_or_system = "U-251"
property_label = "growth, % of control at 10 µM"
value_observed = "16.6%"


[in] Param item = `CCS/C(Nc1ccccc1)=C(\C#N)C(=O)Nc1ccccc1` ; retrieve measured growth, % of control at 10 µM.
[out] 92.6%

[in] Param item = `CC(C)(C)S/C(Nc1ccccc1)=C(\C#N)C(=O)Nc1ccccc1` ; retrieve measured growth, % of control at 10 µM.
[out] 92%

[in] Param item = `CCS/C(Nc1ccccc1)=C(\C#N)C(=O)Nc1ccc(C)cc1` ; retrieve measured growth, % of control at 10 µM.
[out] 96.6%

----------
growth, % of control at 10 µM by entry:
System: UACC-257
assay.overview: Growth of human UACC257 cells at 10 uM incubated for 48 hrs by sulforhodamine B assay relative to control
condition.details: UACC-257, 48 h
Give the quantity in %, number only.

[in] Param item = `CCS/C(Nc1ccccc1)=C(\C#N)C(=O)Nc1ccccc1` ; retrieve measured growth, % of control at 10 µM.
[out] 103

[in] Param item = `CC(C)(C)S/C(Nc1ccccc1)=C(\C#N)C(=O)Nc1ccccc1` ; retrieve measured growth, % of control at 10 µM.
[out] 92.9

----------
Test system: SN12C
assay.overview: Growth inhibition of human SN12C cells at 10 uM incubated for 48 hrs by sulforhodamine B assay relative to control
Format: functional
condition.details: values are per cent of control
API: label(entry) gives satisfied if the entry's growth, % of control at 10 µM is strictly smaller than 90%; on equality or larger values it gives not satisfied.

Example entries and their recorded answers appear below.
[[record]]
compound_structure_string = "CCS/C(Nc1ccccc1)=C(\\C#N)C(=O)Nc1ccc(C)cc1"
group = "not satisfied"

[[record]]
compound_structure_string = "CCS/C(Nc1ccccc1)=C(\\C#N)C(=O)Nc1ccc(OC)cc1"
group = "satisfied"

[[record]]
compound_structure_string = "CC(C)(C)S/C(Nc1ccccc1)=C(\\C#N)C(=O)Nc1ccccc1"
group = "not satisfied"

[[record]]
compound_structure_string = "CCS/C(Nc1ccccc1)=C(\\C#N)C(=O)N/N=C\\c1ccc(Cl)cc1Cl"
group = "satisfied"

[[record]]
compound_structure_string = "CC(C)(C)S/C(Nc1ccccc1)=C(\\C#N)C(=O)N/N=C\\c1ccc(Cl)cc1Cl"
group = "not satisfied"

[[record]]
compound_structure_string = "CC(C)(C)S/C(Nc1ccccc1)=C(\\C#N)C(=O)N/N=C\\c1ccco1"
group = "not satisfied"

[[record]]
compound_structure_string = "CCS/C(Nc1ccccc1)=C(\\C#N)C(=O)Nc1ccccc1"
group = "not satisfied"


Now look at this entry.
[in] Identify whether the compound `CCS/C(Nc1ccccc1)=C(\C#N)C(=O)N/N=C\c1ccco1` records growth, % of control at 10 µM below 90%.
[out] not satisfied

----------
growth, % of control at 10 µM by entry:
Tested on: 786-0
assay.overview: Growth inhibition of human 786-0 cells at 10 uM incubated for 48 hrs by sulforhodamine B assay relative to control
Type: functional
condition.details: 786-0, 48 h, values are per cent of control
Give the quantity in %, number only.

Sample records with growth, % of control at 10 µM:
[[record]]
compound_structure_string = "CCS/C(Nc1ccccc1)=C(\\C#N)C(=O)Nc1ccc(C)cc1"
value_observed = 87.1

[[record]]
compound_structure_string = "CCS/C(Nc1ccccc1)=C(\\C#N)C(=O)N/N=C\\c1ccc(Cl)cc1Cl"
value_observed = 31.8

[[record]]
compound_structure_string = "CC(C)(C)S/C(Nc1ccccc1)=C(\\C#N)C(=O)Nc1ccccc1"
value_observed = 94.3

[[record]]
compound_structure_string = "CCS/C(Nc1ccccc1)=C(\\C#N)C(=O)Nc1ccccc1"
value_observed = 88.5

[[record]]
compound_structure_string = "CCS/C(Nc1ccccc1)=C(\\C#N)C(=O)N/N=C\\c1ccco1"
value_observed = 100

[[record]]
compound_structure_string = "CCS/C(Nc1ccccc1)=C(\\C#N)C(=O)Nc1ccc(OC)cc1"
value_observed = 39.5

[[record]]
compound_structure_string = "CC(C)(C)S/C(Nc1ccccc1)=C(\\C#N)C(=O)N/N=C\\c1ccc(Cl)cc1Cl"
value_observed = 97.8


[in] Param item = `CC(C)(C)S/C(Nc1ccccc1)=C(\C#N)C(=O)N/N=C\c1ccco1` ; retrieve measured growth, % of control at 10 µM.
[out] 102

Values were extracted from ChEMBL document CHEMBL4145553.
